MEASUREMENT DESCRIPTION: TK assay, intravenous mixture dosing: serum concentrations and noncompartmental analysis (sparse data)
MEASUREMENT SETUP: female, New Zealand white, rabbit, in vivo, iv, Serum concentration, rabbit 11, 0.77 h
Method: The experiment was carried out on thirty 10-wk old female New Zealand white rabbits (INRA 1777 line) weighing 2.37±0.14kg . […] Residual concentrations of the compounds, and their possible evolution over time, were determined by sampling six entirely untreated rabbits during the TK study on the day of drug administrations, then 14 d and 28 d later. The volume administered was adjusted to the animal’s body weight (BW) recorded the day before. […]
The entries below are paired with their reported concentration at 0.77 h.
A number alone suffices; assume nM.

Cl[C@H]1[C@H](Cl)[C@@H](Cl)[C@H](Cl)[C@@H](Cl)[C@@H]1Cl :: 250

Please examine the following record next.
Quick check: concentration at 0.77 h of Brc1ccc(Oc2ccc(Br)cc2Br)c(Br)c1 ? 1770

====

MEASUREMENT DESCRIPTION: TK assay, oral mixture dosing: serum concentrations and noncompartmental analysis (sparse data)
MEASUREMENT SETUP: serum, oral mixture dosing, NCA, n=12; doses in Table 3 r3; MEHP measured after oral DEHP, BPSG after BPS
The entries below are paired with their reported Cmax.
A number alone suffices; assume µM.

# example entries with known answers
O=C(O)[C@H]1O[C@@H](Oc2ccc(S(=O)(=O)c3ccc(O)cc3)cc2)[C@H](O)[C@@H](O)[C@@H]1O [BPSG, bisphenol S glucuronide] :: 6.91
O=S(=O)(c1ccc(O)cc1)c1ccc(O)cc1 [BPS, bisphenol S] :: 6.93
O=S(=O)(O)C(F)(F)C(F)(F)C(F)(F)C(F)(F)C(F)(F)C(F)(F)C(F)(F)C(F)(F)F [nPFOS] :: 1.3

Quick check: Cmax of CCCCC(CC)COC(=O)c1ccccc1C(=O)O (stereo not shown) [MEHP, mono(2-ethylhexyl)phthalate] ? 6.87

====

MEASUREMENT DESCRIPTION: in vivo
MEASUREMENT SETUP: female, New Zealand white (INRA 1777 line), rabbit, in vivo, po, Serum concentration
ASSAY METRIC: concentration at 168 h (nM)
A number alone suffices; assume nM.

ClC(Cl)=C(c1ccc(Cl)cc1)c1ccc(Cl)cc1 :: 110

Please examine the following record next.
Quick check: concentration at 168 h of Clc1c(Cl)c(Cl)c(Cl)c(Cl)c1Cl ? 290

====

The entries below are paired with their reported Cmax.
MEASUREMENT DESCRIPTION: TK assay, intravenous mixture dosing: serum concentrations and noncompartmental analysis (sparse data)
MEASUREMENT SETUP: female, New Zealand white (INRA 1777 line), rabbit, in vivo, iv
A number alone suffices; assume nM.

# example entries with known answers
Brc1ccc(Oc2ccc(Br)cc2Br)c(Br)c1 :: 1820
O=C(O)C(F)(F)C(F)(F)C(F)(F)C(F)(F)C(F)(F)C(F)(F)C(F)(F)F :: 2330
ClC(Cl)=C(c1ccc(Cl)cc1)c1ccc(Cl)cc1 :: 900
Clc1c(Cl)c(Cl)c(Cl)c(Cl)c1Cl :: 19

Quick check: Cmax of Cl[C@H]1[C@H](Cl)[C@@H](Cl)[C@H](Cl)[C@@H](Cl)[C@@H]1Cl ? 320
